# Tested target: BRM (Homo sapiens, UniProt P51531)
# Construct: made in house; host or cells: High Five insect cells
# Sequence (P51531 whole entry): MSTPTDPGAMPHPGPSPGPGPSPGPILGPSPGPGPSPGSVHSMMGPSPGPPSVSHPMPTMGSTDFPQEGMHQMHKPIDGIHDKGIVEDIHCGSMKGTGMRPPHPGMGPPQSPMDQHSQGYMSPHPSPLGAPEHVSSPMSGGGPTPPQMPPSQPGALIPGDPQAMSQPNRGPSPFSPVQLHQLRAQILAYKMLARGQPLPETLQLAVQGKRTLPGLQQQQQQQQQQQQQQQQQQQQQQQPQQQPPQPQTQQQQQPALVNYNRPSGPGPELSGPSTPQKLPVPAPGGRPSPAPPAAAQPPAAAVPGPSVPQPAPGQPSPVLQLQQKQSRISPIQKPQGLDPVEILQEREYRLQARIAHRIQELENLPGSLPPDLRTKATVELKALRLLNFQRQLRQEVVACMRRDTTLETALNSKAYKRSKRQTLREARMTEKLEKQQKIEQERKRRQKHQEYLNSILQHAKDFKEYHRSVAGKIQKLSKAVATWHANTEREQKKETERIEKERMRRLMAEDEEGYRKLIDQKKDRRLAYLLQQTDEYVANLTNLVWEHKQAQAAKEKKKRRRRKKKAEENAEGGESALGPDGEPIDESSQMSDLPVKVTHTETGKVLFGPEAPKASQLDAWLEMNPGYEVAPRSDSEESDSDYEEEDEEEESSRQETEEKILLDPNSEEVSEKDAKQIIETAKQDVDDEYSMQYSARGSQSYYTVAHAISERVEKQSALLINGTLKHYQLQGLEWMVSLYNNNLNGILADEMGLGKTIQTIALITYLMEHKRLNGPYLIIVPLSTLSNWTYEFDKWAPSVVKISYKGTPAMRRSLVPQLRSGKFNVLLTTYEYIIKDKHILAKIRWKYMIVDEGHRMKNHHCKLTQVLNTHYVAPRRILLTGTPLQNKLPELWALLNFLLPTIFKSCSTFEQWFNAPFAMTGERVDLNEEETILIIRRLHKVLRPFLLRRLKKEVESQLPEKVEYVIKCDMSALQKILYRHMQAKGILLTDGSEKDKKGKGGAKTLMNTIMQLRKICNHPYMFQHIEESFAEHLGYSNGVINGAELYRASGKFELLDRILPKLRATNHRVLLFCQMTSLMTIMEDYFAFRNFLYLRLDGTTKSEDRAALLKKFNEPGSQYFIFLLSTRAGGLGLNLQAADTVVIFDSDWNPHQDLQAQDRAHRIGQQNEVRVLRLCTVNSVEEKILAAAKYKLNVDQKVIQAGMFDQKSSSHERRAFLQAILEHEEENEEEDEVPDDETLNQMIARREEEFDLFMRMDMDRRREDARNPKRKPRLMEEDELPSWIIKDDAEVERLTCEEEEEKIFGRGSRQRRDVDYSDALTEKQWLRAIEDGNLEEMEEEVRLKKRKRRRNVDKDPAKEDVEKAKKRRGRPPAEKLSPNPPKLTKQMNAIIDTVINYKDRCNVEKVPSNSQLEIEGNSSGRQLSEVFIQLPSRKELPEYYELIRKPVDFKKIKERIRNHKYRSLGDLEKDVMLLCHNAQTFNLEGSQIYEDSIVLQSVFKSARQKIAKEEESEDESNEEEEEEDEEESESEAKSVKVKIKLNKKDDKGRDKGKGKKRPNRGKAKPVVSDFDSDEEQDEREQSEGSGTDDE
# Protocol details: ATPase catalytic activity assay (ADP-Glo), BRM
# Assay type: biochemical
# Reported conditions: ATPase assay, selectivity BRG1/BRM, Table 10
Property name: Ratio (BRG1 IC50 (μM) divided by BRM IC50 (μM))

> print(dat)
                                smiles.data  data.value
1  CCOCc1ccnc2c1OCCN2c1ccc2cnc(CNC(=O)c3cc(F)c4c(c3)S(=O)(=O)[C@@H](F)CCO4)cc2n1       16.69

[a] O=C(NCc1cc2nc(N3CCOc4ccc(N5CC(F)C5)nc43)ccc2cn1)c1cc(F)c2c(c1)S(=O)(=O)[C@@H](F)CCO2
[b] CO[C@H]1CN(c2cccc(-c3ccc4cnc(CNC(=O)c5cc(F)c6c(c5)S(=O)(=O)[C@@H](F)COC6)cc4n3)n2)C[C@@H]1F
In terms of reported Ratio (BRG1 IC50 (μM) divided by BRM IC50 (μM)), does a or b have the smaller number? Indicate your choice by writing its label.
b
